Molecular target: KDR (Homo sapiens, UniProt P35968)
Sequence (P35968 20-1356): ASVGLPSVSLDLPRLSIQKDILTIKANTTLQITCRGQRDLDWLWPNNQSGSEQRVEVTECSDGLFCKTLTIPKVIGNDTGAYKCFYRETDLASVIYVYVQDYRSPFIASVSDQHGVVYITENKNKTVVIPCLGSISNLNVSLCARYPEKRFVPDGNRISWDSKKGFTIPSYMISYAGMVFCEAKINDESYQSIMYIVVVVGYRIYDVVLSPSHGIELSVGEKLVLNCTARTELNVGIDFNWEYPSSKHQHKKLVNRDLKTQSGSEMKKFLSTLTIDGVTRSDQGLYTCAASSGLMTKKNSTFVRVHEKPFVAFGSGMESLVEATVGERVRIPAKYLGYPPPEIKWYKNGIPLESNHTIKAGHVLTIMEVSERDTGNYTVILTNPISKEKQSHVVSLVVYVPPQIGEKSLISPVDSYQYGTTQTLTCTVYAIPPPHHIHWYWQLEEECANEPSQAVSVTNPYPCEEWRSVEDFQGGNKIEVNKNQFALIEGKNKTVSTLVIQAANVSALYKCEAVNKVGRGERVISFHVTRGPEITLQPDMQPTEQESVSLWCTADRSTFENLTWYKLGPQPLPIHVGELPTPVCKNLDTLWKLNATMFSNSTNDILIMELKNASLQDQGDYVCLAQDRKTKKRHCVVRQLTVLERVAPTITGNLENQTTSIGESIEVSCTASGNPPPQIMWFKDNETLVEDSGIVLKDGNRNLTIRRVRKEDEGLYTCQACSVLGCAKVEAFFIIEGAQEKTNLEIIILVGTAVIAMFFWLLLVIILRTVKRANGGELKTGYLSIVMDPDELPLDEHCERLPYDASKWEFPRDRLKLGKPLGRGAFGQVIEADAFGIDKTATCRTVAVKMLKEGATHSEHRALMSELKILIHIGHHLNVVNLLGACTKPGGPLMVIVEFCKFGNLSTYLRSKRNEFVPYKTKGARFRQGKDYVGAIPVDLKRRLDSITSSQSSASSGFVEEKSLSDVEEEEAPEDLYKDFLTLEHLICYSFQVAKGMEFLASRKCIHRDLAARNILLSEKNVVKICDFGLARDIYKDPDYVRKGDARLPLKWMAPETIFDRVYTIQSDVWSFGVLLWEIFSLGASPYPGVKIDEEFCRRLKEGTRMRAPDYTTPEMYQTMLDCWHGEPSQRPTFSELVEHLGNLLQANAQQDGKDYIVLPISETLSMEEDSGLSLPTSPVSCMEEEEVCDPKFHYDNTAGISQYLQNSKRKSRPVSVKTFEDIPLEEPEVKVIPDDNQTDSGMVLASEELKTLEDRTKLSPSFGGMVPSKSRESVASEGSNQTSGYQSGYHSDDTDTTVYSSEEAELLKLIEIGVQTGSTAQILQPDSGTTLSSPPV
READOUT TYPE: IC50

Consider the compound CCOc1ccc2nc(NC(=O)CSc3nnc(Cc4c[nH]c5ccccc45)o3)sc2c1 [Compound 2e] and give its recorded IC50.
> 30 µM

----------
Would you mind telling me the reported IC50 of each entry?
System: HCT116 human colorectal carcinoma cell line
Assay: MTT cytotoxicity assay, HCT116
Settings: HCT-116, 48 h, read-out: IC50 HCT-116 Cell Line

Guide cases for IC50, answers given:
CHEMICAL SMILES | STUDY SYSTEM | RESULT VALUE
O=C(CSc1nnc(Cc2c[nH]c3ccccc23)o1)Nc1nc2ccc([N+](=O)[O-])cc2s1 | HCT116 human colorectal carcinoma cell line | > 100 µM
Cc1ccc2nc(NC(=O)CSc3nnc(Cc4c[nH]c5ccccc45)o3)sc2c1 | HCT116 human colorectal carcinoma cell line | 18.2 µM
O=C(CSc1nnc(Cc2c[nH]c3ccccc23)o1)Nc1ncc([N+](=O)[O-])s1 | HCT116 human colorectal carcinoma cell line | > 100 µM

Please look at the following molecule next.
Consider the molecule CCOC(=O)Cc1csc(NC(=O)CSc2nnc(Cc3c[nH]c4ccccc34)o2)n1 and give its recorded IC50.
> 100 µM
